// data source = patent US9499502B2

Biological target: soluble human BACE1 catalytic domain (Homo sapiens (Human), UniProt P56817)
Sequence (P56817 75-416): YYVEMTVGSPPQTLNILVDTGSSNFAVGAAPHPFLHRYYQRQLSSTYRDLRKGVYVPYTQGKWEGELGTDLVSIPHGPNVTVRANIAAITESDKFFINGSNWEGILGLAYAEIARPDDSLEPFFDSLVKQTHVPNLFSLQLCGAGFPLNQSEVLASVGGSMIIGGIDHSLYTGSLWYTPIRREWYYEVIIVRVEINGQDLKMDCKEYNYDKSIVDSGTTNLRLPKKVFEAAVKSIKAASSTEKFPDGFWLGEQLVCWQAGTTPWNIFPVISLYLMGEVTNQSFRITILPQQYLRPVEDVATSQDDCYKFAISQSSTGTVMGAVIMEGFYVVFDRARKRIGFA
Assay: BACE1 HTRF FRET Assay
Conditions: read-out: BACE1 Ki; Ki calculated from IC50 using the Cheng-Prusoff equation
EXPERIMENTAL READOUT: Ki (nM)

Worked cases, Ki given:
1) COc1ccc(C(=O)Nc2ccc(F)c([C@]3(C)CS(=O)(=O)[C@@](C)(CC4CC4)C(=N)N3)c2)nc1; 4.3
2) CC1(C)C(=N)N[C@](C)(c2sc(C(=O)NCc3cnn4ccccc34)cc2Cl)CS1(=O)=O [Example 22s]; 128
3) C[C@@]1(c2cc(NC(=O)c3ccc(Cl)cn3)ccc2F)CS(=O)(=O)[C@](C)(CC2CC2)C(=N)N1; 15.6

1: C[C@@]1(c2cc(NC(=O)c3ccc(F)cn3)ccc2F)CS(=O)(=O)[C@@](C)(c2ccccn2)C(=N)N1
2: CC1(C)C(=N)N[C@](C)(c2sc(-c3nnc(-c4ccc(Cl)cc4)o3)cc2Cl)CS1(=O)=O [Example 27bc]
Sorting ascending by Ki, which comes first: 1 or 2 ? The response must carry the label of the picked entry.
1
(1: 7.8 nM, 2: 35.9 nM)

A: CC1(C)C(=N)N[C@](C)(c2cc(NC(=O)C3CCC3(F)F)ccc2F)CS1(=O)=O (stereo partly drawn)
B: COc1ccc(C(=O)Nc2ccc(F)c([C@]3(C)CS(=O)(=O)[C@@](C)(c4ccccn4)C(=N)N3)c2)nc1
C: C[C@@]1(c2cc(NC(=O)c3ccc(F)cn3)ccc2F)CS(=O)(=O)[C@@](C)(C2CCOCC2)C(=N)N1
D: C[C@@]1(c2cc(NC(=O)c3ccc(F)cn3)ccc2F)CS(=O)(=O)[C@](C)(CC(F)(F)F)C(=N)N1
E: CC1(C)C(=N)N[C@](C)(c2sc(-c3nnc(-c4ccc(C#N)cc4)o3)cc2Cl)CS1(=O)=O [Example 27be]
Sort (5 compounds) by Ki: min first. Please reply with the labels ordered as requested. Many thanks.
C, B, E, D, A

I: CC1(C)C(=N)N[C@](C)(c2cc(NC(=O)c3ccc(Cl)cn3)cc(F)c2F)CS1(=O)=O
II: CC1(C)C(=N)N[C@](C)(c2c(F)c(F)cc(NC(=O)c3ccc(Cl)cn3)c2F)CS1(=O)=O
III: COc1ccc(C(=O)Nc2ccc(F)c([C@]3(C)CS(=O)(=O)[C@](C)(C4CCC4)C(=N)N3)c2)nc1
Output the entries ranked by Ki from maximum down to minimum. Please reply with the labels ordered as requested. Many thanks.
III, II, I
(III: 307 nM, II: 9.6 nM, I: 4.3 nM)

1: CC1(C)C(=N)N[C@](C)(c2sc(C(=O)Nc3cccc(C(F)(F)F)n3)cc2Cl)CS1(=O)=O
2: CC1(C)C(=N)N[C@](C)(c2sc(-c3nnc(-c4ccccc4)o3)cc2Cl)CS1(=O)=O [Example 27ba]
Rank 1 against 2 by their Ki values and give the higher one. The response must carry the label of the picked entry.
2
